Biological target: UniProt:P11712
Sequence (P11712 whole entry): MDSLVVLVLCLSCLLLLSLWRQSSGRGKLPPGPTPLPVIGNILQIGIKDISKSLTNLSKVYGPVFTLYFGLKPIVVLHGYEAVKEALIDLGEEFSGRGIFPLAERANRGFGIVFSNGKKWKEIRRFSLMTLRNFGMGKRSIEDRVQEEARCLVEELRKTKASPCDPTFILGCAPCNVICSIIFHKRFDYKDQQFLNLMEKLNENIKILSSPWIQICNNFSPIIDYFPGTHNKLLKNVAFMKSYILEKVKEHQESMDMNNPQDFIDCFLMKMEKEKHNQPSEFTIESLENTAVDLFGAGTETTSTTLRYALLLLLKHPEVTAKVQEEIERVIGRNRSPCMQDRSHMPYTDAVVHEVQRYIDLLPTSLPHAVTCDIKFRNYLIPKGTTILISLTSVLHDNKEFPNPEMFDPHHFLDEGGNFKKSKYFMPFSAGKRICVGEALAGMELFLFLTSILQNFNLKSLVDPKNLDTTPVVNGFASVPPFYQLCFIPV
Test: Inhibition of CYP2C9
Assay type: ADME
readout.type: INH

> print(dat)
                                   molecule  measurement.target  readout.type  recorded.measurement
1  CC(C)(C)S(=O)(=O)c1ccc2[nH]c(N3CCOC(c4ccccc4)C3)nc2c1 (stereo not given)      UniProt:P11712           INH               > 20 µM
2  CC(C)CS(=O)(=O)c1ccc2[nH]c(N3CCOC(c4ccccc4)C3)nc2c1 (stereo not given)      UniProt:P11712           INH                 17 µM

Entry CCCS(=O)(=O)c1ccc2nc(N3CCOC(c4ccccc4)C3)[nH]c2c1 (stereo not given) , INH reported as > 20 µM

Entry CCCS(=O)(=O)c1ccc2[nH]c(N3CCNC(c4ccccc4)C3)nc2c1 (stereo not given) , INH reported as > 20 µM

Entry CCS(=O)(=O)c1ccc2nc(N3CCOC(c4ccccc4)C3)[nH]c2c1 (stereo not given) , INH reported as > 20 µM

Entry CCCS(=O)(=O)c1ccc2nc(N3CCCC(c4ccccc4)C3)[nH]c2c1 (stereo not given) , INH reported as 9.4 µM

Entry CCS(=O)(=O)c1ccc2[nH]c(N3CCOC(c4ccc(C)cc4)C3)nc2c1 (stereo not given) , INH reported as > 20 µM

Entry O=S(=O)(c1ccc2nc(N3CCOC(c4ccccc4)C3)[nH]c2c1)C(F)(F)F (stereo not given) , INH reported as 4.5 µM

Entry CCCS(=O)(=O)c1ccc2[nH]c(C3CCOC(c4ccccc4)C3)nc2c1 (mixture of isomers) , INH reported as > 20 µM

Entry CCCS(=O)(=O)c1ccc2nc(C3CCC(=O)N(c4ccccc4)C3)[nH]c2c1 (stereo not given) , INH reported as > 20 µM
